This collection of values is drawn from paper PMC3148250.

Target: A13DBD I366A (mouse (murine), UniProt Q62424 320-386, I366A)
Sequence (Q62424 320-386 I366A): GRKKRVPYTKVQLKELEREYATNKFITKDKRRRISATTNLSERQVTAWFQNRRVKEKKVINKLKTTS
Experiment: ITC; FA: 20 mM Tris pH 7.5, 80 mM KCl, 10 mM MgCl2, 0.2 mM EDTA, 1 mM DTT, 15 C, 1 nM DNA; NMR complex: 20 mM NaPO4 pH 6.0, 5 mM MgCl2, 10% D2O, 310 K; ITC buffer not given in the material
Settings: protein: recombinant; tags: His-tag removed by thrombin; blunt
pKd: −log10 of the molar value.
Measurement kind: pKd

binder="11-mer duplex WT (dsDNA) DNA 1: CAAATAAAATC DNA 2: GATTTTATTTG" reading=7.36
